pIC50: −log10 of the molar value.
System: UniProt:P42336 | Read-out: pIC50
Sequence (P42336 whole entry, looked up): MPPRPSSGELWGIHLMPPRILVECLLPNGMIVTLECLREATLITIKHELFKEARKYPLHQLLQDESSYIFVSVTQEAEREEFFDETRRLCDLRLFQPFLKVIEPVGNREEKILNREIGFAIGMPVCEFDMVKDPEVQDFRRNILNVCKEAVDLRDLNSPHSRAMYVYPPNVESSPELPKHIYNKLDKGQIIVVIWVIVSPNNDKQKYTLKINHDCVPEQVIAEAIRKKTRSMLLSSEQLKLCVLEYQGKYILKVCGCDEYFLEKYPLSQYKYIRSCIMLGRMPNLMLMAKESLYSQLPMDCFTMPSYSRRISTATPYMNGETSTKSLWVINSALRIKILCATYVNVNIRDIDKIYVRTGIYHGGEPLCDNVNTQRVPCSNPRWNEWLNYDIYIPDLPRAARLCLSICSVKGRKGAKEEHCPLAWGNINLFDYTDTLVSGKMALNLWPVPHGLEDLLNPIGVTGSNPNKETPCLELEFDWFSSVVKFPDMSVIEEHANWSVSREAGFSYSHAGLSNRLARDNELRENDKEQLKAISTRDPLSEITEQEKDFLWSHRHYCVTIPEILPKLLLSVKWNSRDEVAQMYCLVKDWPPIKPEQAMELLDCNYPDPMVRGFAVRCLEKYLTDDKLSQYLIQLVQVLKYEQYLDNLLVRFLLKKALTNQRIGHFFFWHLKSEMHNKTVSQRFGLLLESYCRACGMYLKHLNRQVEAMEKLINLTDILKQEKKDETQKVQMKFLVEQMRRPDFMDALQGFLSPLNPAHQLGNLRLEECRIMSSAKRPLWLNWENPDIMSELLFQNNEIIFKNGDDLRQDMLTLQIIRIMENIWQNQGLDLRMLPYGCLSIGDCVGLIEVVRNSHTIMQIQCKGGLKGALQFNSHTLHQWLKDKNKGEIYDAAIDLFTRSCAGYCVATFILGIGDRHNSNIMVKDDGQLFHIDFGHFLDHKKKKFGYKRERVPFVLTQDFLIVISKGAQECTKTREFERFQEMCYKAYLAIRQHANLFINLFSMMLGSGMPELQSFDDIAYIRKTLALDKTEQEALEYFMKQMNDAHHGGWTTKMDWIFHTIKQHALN

Guide cases for pIC50, answers given:
CC(=O)Nc1cc(-c2nc(-c3ccc(Oc4ccccc4)cc3)c(-c3ncc[nH]3)s2)ccn1 6.00 to 7.00
Clc1ccc(-c2nc(-c3ccnc4[nH]ccc34)sc2-c2ncc[nH]2)c(Cl)c1 > 7.00

Moving on to the next molecule.
query: Please report the recorded pIC50 for Cc1nn2ccc(OCCO)cc2c1-c1nc(-c2ccccc2)c(-c2nnc[nH]2)s1 .
result: > 7.00
